experiment: soluble on expression in E. coli; label from the status in PepcDB or PDB records
PROPERTY LABEL: soluble on expression in E. coli

MHRVEETRRIAPEEGNPVLISQIKDASGNITVAVREEGGQARAVKGAASVYALAMEAANGGKSLADVVSAHGLGDAVDLDKAYAEGRFLPPITHPDPAHLHLTGTGLTHLGSAATRDSMHKKTTEAAEESLTDSMKMFRMGLENGKPKAGEKGVQPEWFYKGNGHVAAAPGAALTSPSFALDGGEEPEMAGIYVISDKGEAVRIGFAVSNEFSDHVTERVNYLYLAHSKLRPASFGPEIRVGAAPSDIRGTSRIRRGDKVIFEKPFVSGEDNMSHTFANLEYHHFKYGLFRAPGDVHVHMFGTATLSFAEGIKPEAGDVFEIEAAGFGLPLKNPLAVDSEEEIVVRQI ... not soluble
MSPQDTCCPPDSWPALKVDYKPKGKLEDIGKGLKAYVVGNGPRAVIALNDVFGIESGHSKEICDAIADKGFTVVFPDVFRGKPLQVSDMSKLFDELPGWAKQFDYEPALRKDVVEVILPYLHDKLGFKSNDQIALAGFCWGAFMLFHLAGDTKLPGGPFACGVSFHPSVQIEGVFQRDPLQLIDRATCPQLLLPSAGEPDYMKEEGDAIKKLRAKPFGASCGVKTFPSMQHGWVNRGDRNDPQVVKEAQEALQLAVDFMMRHTKPKA ... not soluble

---

experiment: soluble on expression in E. coli; label from the status in PepcDB or PDB records
PROPERTY LABEL: soluble on expression in E. coli

AAGAAPVDISTLPRVKVDLVKPPFVHAHDQVAKTGPRVVEFTMTIEEKKLVIDREGTEIHAMTFNGSVPGPLMVVHENDYVELRLINPDTNTLLHNIDFHAATGALGGGALTQVNPGEETTLRFKATKPGVFVYHCAPEGMVPWHVTSGMNGAIMVLPRDGLKDEKGQPLTYDKIYYVGEQDFYVPKDEAGNYKKYETPGEAYEDAVKAMRTLTPTHIVFNGAVGALTGDHALTAAVGERVLVVHSQANRDTRPHLEGGHGDYVWATGKFRNPPDLDQETWLIPGGTAGAAFYTFRQPGVYAYVNHNLIEAFELGAAGHFKVTGEWNDDLMTSVVKPASM ... soluble
MTTSHRPQLEARSGAKAAAYTPTGIEHARLLPGHTTLKYRKFKEEENLRANCAQEDRSNDKSLEEAVMNEEKQDVVGSGNLQETRSEKDQKDSLQELLVTQKNKVEDKAELEGNEQLKGGNSSRRSWRKGTAFGRHKVTKETNIKEHATKKSASGYINDMTKSEYHQEFLHKHVR ... not soluble
MEDPQSKEPAGEAVALALLESPRPEGGEEPPRPSPEETQQCKFDGQETKGSKFITSSASDFSDPVYKEIAITNGCINRMSKEELRAKLSEFKLETRGVKDVLKKRLKNYYKKQKLMLKESNFADSYYDYICIIDFEATCEEGNPPEFVHEIIEFPVVLLNTHTLEIEDTFQQYVRPEINTQLSDFCISLTGITQDQVDRADTFPQVLKKVIDLMKLKELGTKYKYSLLTDGSWDMSKFLNIQCQLSRLKYPPFAKKWINIRKSYGNFYKVPRSQTKLTIMLEKLGMDYDGRPHCGLDDSKNIARIAVRMLQDGCELRINEKMHAGQLMSVSSSLPIEGTPPPQMPHFRK ... soluble
MALRRVKNPEMWNDDLYNLMFRFTKPNGTFATFTAASAVRKGLESAGFNVTKRKGFGKKRECLSGLKIQSKSTALSTPWYLAQPAKMEKQDVAIIGGGIASLCAAISLIKRGAKVTIYCEDDALALNASGNKQGAFYPQLSDDNALTVDFYLHAFSYGRQLLDWAIEQNIVFEHEFCGVALCAYNEKSAVKLTKISQLGLPNEIFQMLSAEQLSEKVGLPLNCEGGWIEQGAWLAPRQFVQNAFSFLEKQGVVIKTAQKITALSQLEKGWELKNMQGQKYCHEVVILANGHKITDFVQTEKLPLYPIRGQVSQIPTSENLLKLKSVLCYDGYLTPANQLKTSHCIGASMFVIMLIAILANKNNKKINKNSSKISPNLGRKMWIHQIISLVLEHHHHHH ... not soluble
MIFNIQRYSTHDGPGIRTVVFLKGCSLGCRWCQNPESRARSEDLLYDSRLCLAGCELCQQAAPAVITRTLDGLIIHRQNVNDSHIAALRDCCPTTALTVCGEEKSVEEIMATVLRDKPFYDRSGGGITLSGGEPFMNPTLAQALFEASHQAGIHTAVETCLHVPWKYIEPSLPFVDLFLADLKHVDEAVFQQWTDGSARRVLDNLQRLAQAGKKMIIRVPLIQGFNASEADIAAITDFAADRLQVSEIHYLPYHTLGMNKYQLLSQPYTAPDKPLDAPELLVFAQDYAQSKGLTAILRG ... not soluble
MIRLNVFVRVNETNREKAIEAAKELTACSLKEEGCIAYDTFESSTRRDVFMICETWQNAEVLAAHEKTAHFAQYVGIIQELAEMKLEKFEF ... soluble

Entry `MTFGRLWEKFLASAYYSDLSPRTQKDYLQHQKKLLAVFGKVPADSIKPEHIRRYMDKRGEQSKTQANHEKSSMSRVYSWGYERGYVKANPCAGVSKFKAKNRERYVTDKEYQAVLSVAPLPVFIAMEIAYLCAARVSDVLSLKWEQIGNDGIFIQQGKTGKKQIKAWSPRLQAAIEKAKQLPTSAYVISNQYGNRYMYKGFNEMWVEARNRAGKISGILTDFTFHDLKAKGISDYEGSSRDKQLFSGHKTEGQVLIYDRKVKVSPTLDVPLPENIPRKYSK` , soluble on expression in E. coli reported as not soluble

Measured soluble on expression in E. coli of `GPGSMSEHATTDLEGRYAQLATIQSEIDAAPLLSPTVEKLGDGCNLMTEFSDNPPMLVKVVSLWRNEETKYKGIRYARRDGNCFYRSVVFGMHESLLNNKERAGAHLERITDLSRQVVADYGNFAEDFCHPAVEMAKKIESGECSTVEQLYELSTNGEAEYALYFYRYAVSHHIRTHEDDFLPFVVGMGHETVSEFCSVEVDAVASEADNVQVVAFAQCFDVRVIVEYVDGREGDCTTRHTFQQKDSHDANEYTTIEVTLLYRPGHYDLLYK` : soluble

For `MGSDKIHHHHHHLKAIKYGVTREHIREFKVALTDGKVYKFGSKSVKSSSGYSLNDLIIGSEGTLGVITEAVLRLYPRPKHALNAIIPFPTLDDAIESVPAILASGVEYMGRKVLNLWEKYYDATFPIKEGDGFIILGIDSFTASDAEAQLAQALEAVKPFHALKETVLNAESDEAKTIWDAREKLLLAIQKSTPKMDEVDVSVPINKIPLVLHRIEELEKEEDMRIPNFGHAGDGNLHIYLCSDDMTDEEFAKKGDNVISELYKTAKSVDGNMSGEHGVGYARQNYYEDFYGKDYTDLLRKVKGLFDPKGILNPDKIFPLD` the sequence record lists soluble on expression in E. coli as not soluble

Input `ATYAAASSALVPRGSHMYAPKLQGPVAVYTWEGNQVNITCEVFAYPSATISWFRDGQLLPSSNYSNIKIYNTPSASYLEVTPDSENDFGNYNCTAVNRIGQESLEFILVQADTPSSPSIDQVEPYSSTAQVQFDEPEATGGVPILKYKAEWRAVGEEVWHSKWYDAKEASMEGIVTIVGLKPETTYAVRLAALNGKGLGEISAASEFKTQPVQGE` . Output soluble on expression in E. coli: soluble

Entry `MSLDRILTFDCYGTLIDTKPVFDAISNIAKNNILNSKDAVNIYVNYEDRLMYGETYIPYDKLIKQVLEYCDMELVTNVFSKSYDEIISVHKRLKPFKEVVESLEKIHKKGYELALMSNSVHDIIDYNLDALGNVFNNVFLSEDIHAYKPQLKFFKYVEERLELKQKKHCHIAKGYWWDIVPCSKLGWRKIWVNRENKKGNKCHEPYEEVHTLDEVINLIEGHHHHHH` , soluble on expression in E. coli reported as soluble

---

test: soluble on expression in E. coli; label from the status in PepcDB or PDB records
PROPERTY LABEL: soluble on expression in E. coli

Record excerpt, results attached:
RADLQYLLNHPDPTEYKEKPLPYPFLTHWLHDIQEQTISKRLDESAGSAGEVSFIFVPCYLNRKDGIFGLGYYDLLIGMDLTVFPSYYEPWGYTPLES ... not soluble
MGSDKIHHHHHHMQGRTPLLETLRELECEIRLLTVYARECCGCYEILRRKLDRLSGLIGEDCSRAQWQADSDDPALQALGLRLRDAAVQALCELEKHLCQGVLHEPGEMGRYLGSLLESIRGELDSAGIYAYARVLFVGSGALPTSALVLAREVGAHLCCLDIDEEALGCAREIARCQGLEARMQFSSLPPAELAFSRDATHFLIASLVQQKSAVLAQIRQVMRADAKVLLRHGSGIKGLFNYPVEPAELDGWRVCAERVSQPLYDTLILEKAGR ... not soluble
MSLTKNNISFYVVDASEELTMNIKEASEKSGVSADTIRYYERIGLIPPIHRNESGVRKFGAEDLRWILFTRQMRRAGLSIEALIDYLALFREGEHTLEARAELLKKQRIELKNRIDVMQEALDRLDFKIDNYDTHLIPAQEELKDFNVERSNEGHHHHHH ... soluble
MLKYNIRGENIEVTEPIRDYVEKKIDKLERYFTETPDANVHVNLKVYSDKNAKVEVTIPLPNLVLRAEETSGDLYASIDLIVDKLERQIRKHKTKVNRKFRDKGAERDYFAYSDVNGSTPPEENEGDFDLEIVRTKQFSLKPMDSEEAVLQMNLLGHSFYVYTDAETNGTNIVYSRKDGKYGLIETNLEHHHHHH ... soluble

soluble on expression in E. coli measured on `SLDPLFTTQILKYKGDESFTCNDTLVREIKLEIFINDEKVGALMATPVDEQALAIGYLMSENIIAKVSDIESIETKDDGMSVHIKAKIDKENLAKLNAEGVVISGCGRAHTANIDPEAIEASKISSDAKFSKDEILKQMSTFYTQCELYEKTGCVHTAKLFVDEKTFFIGEDIAQHNTIDKALGKACLAGVDLSQCFLMVSGRLSSEMVAKAVMHKIPVLVSRTAPTCLGVMIARKFDLTLCGFARENKINIYSGEFRIHG` = soluble

Documented soluble on expression in E. coli of `SNAMTGTLLSFGHGYTARVLSRALAPQGWRIIGTSRNPDQMEAIRASGAEPLLWPGEEPSLDGVTHLLISTAPDSGGDPVLAALGDQIAARAAQFRWVGYLSTTAVYGDHDGAWVDETTPLTPTAARGRWRVMAEQQWQAVPNLPLHVFRLAGIYGPGRGPFSKLGKGGIRRIIKPGQVFSRIHVEDIAQVLAASMARPDPGAVYNVCDDEPVPPQDVIAYAAELQGLPLPPAVDFDKADLTPMARSFYSENKRVRNDRIKEELGVRLKYPNYRVGLEALQADAET` : soluble

Record summary for `GHMAIQRRIRRVKTVQMTTNSPIHRSGSVLEPGNWQEYDPFLLLMEDIFERGTFDVHPHRGIETVTYVISGELEHFDSKAGHSTLGPGDVQWMTAGRGVVHKEDPASGSTVHSLQLWVNLPSAYKMTEPRYQNLRSKDMPVRKEEGATIRVFSGSSKGVKAPTKNIVPVTMVEMIVEPGTTVVQDLPGHYNGFLYILEGSGVFGADNIEGKAGQALFFSRHNRGEETELNVTAREKLRLLLYAGEPVNEPVVAYGPFVMNTPEQIREAIRDYQEGRFGR` : reported soluble on expression in E. coli = soluble

Briefly, soluble on expression in E. coli measured for `SNILEKVVLKVLEDQQNIRLIRELLQTLYTSLCTLVQRVGKSVLVGNINMWVYRMETILHWQQQLNNIQITRPAFKGLTFTDLPLCLQLNIMQRLSDGRDLVSLGQAAPDLHVLSEDRLLWKKLCQYHFSERQIRKRLILSDKGQLDWKKMYFKLVRCYPRKEQYGDTLQLRKHCHILSWKGTDHPCTANNPESCSVSLSPQDFINLFKF` : not soluble

The recorded soluble on expression in E. coli for entry `MAHHHHNSGPLEFTVSANTNPATDAVRESILANPGFGKYYTDHMVSIDYTVDEGWHNAQVIPYGPIQLDPSAIVLHYGQEIFEGLKAYRWADGSIVSFRPEANAARLQSSARRLAIPELPEEVFIESLRQLIAVDEKWVPPAGGEESLYLRPFVIATEPGLGVRPSNEYRYLLIASPAGAYFKGGIKPVSVWLSHEYVRASPGGTGAAKFGGNYAASLLAQAQAAEMGCDQVVWLDAIERRYVEEMGGMNLFFVFGSGGSARLVTPELSGSLLPGITRDSLLQLATDAGFAVEERKIDVDEWQKKAGAGEITEVFACGTAAVITPVSHVKHHDGEFTIADGQPGEITMALRDTLTGIQRGTFADTHGWMARLN` equals soluble

GET /value?item= `MGSSHHHHHHGGTGENLYFQGGSGMKGVTSFTVYGLVPAADFQRCAEAAAYVNDKYPESYAVIVKLELPRDFAERRAAWASAGHLPSQQQQPTDASFGESGGSATTASTAAAELAAVLVEQHGSDSEPQCLLTAETFLHNIATHTDYKPDATEDYYTARGKRAWRAFLASRGRQYCWMDVSVDGVAVGRVWFELYASVAPLTCKNFCELCRGTTVAMGDTVAHSSVFDPPPAQHIGYKGTTFFRTLKDAWVMGGDVTGAHSGNGGYSCYGRCFPDETYAVPHDAAGILGMCNDGPHTSSSAFYITLRPMSWMNGKYVAFGRVMDGMHVVDAIHAVEARHNQAPKASIVITDCDVLDTSV` &field=soluble on expression in E. coli returns soluble

Consider `GPVDMTERLKVMTIFGTRPEAIKMAPLVLELQKHPEKIESIVTVTAQHRQMLDQVLSIFGITPDFDLNIMKDRQTLIDITTRGLEGLDKVMKEAKPDIVLVHGDTTTTFIASLAAFYNQIPVGHVEAGLRTWDKYSPYPEEMNRQLTGVMADLHFSPTAKSATNLQKENKDESRIFITGNTAIDALKTTVKETYSHPVLEKLGNNRLVLMTAHRRENLGEPMRNMFRAIKRLVDKHEDVQVVYPVHMNPVVRETANDILGDYGRIHLIEPLDVIDFHNVAARSYLMLTDSGGVQEEAPSLGVPVLVLRDTTERPEGIEAGTLKLAGTDEETIFSLADELLSDKEAHDKMSKASNPYGDGRASERIVEAILKHFNK` . Its measured soluble on expression in E. coli is soluble
